Target: T1, B7-H3 on MDA-MB-468 cells (human, UniProt Q5ZPR3)
T1 construct: endogenous, on the cell surface
T1 sequence (cell surface antigen, looked up): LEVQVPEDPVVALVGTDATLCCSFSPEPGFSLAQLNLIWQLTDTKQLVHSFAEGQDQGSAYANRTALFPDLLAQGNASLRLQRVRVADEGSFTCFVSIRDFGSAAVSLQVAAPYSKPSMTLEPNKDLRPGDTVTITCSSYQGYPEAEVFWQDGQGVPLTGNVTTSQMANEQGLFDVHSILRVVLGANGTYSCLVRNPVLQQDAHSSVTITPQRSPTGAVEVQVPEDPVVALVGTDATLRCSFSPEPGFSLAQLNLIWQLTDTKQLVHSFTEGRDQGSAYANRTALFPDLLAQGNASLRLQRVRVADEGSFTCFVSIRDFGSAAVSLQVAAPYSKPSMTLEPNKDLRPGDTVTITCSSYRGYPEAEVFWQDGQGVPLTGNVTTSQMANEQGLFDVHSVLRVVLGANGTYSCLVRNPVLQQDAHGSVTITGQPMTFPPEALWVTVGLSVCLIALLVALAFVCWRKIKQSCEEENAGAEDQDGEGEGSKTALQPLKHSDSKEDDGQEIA
Assay: flow cytometry on MDA-MB-468 cells; blank V2-R 0.9%
endpoint: % of cells in gate V1-R at 100 nM (%)
One number for each entry, in %.

Consider the worked cases shown below.
| binder | % of cells in gate V1-R at 100 nM (%) |
| --- | --- |
| Antibody V2 (antibody, human IgG1, kappa, V domains shown, Humanized from chimeric antibody M1; also called humanized antibody V2) VH: EVQLVQSGAEVKKSGESLKISCKASGYTFTDYDINWVRQMPGKGLEWIGWIFPGDDTTKYNEKFKGQVTLSADKSTNTAYMQWSSLKASDTAMYYCARSPSFDYWGQGTLVTVSS VL: QIVLTQSPGTLSLSPGERATLSCSASSTIGFMYWYQQKPGQAPRRWIYDTSKLASGVPDRFSVSGSGTDYTLTISRLEPEDFAVYYCHQRSSYPTFGQGTKVEIKR | 99.4 |
| Antibody M1 (antibody, human IgG1, kappa, V domains shown, Chimeric antibody: murine variable regions on human IgG1 and light chain constant regions; expressed in HEK293F cells; also called chimeric antibody M1) VH: QVQLQQSGPELVKPGASVRISCKASGYTFTDYDINWVQQRPGQGLEWIGWIFPGDDTTKYNEKFKGRATLTADKSSNTAYMQLNGLTSENSAVYFCARSPSFDYWGQGTLVTVSS VL: QIVLTQSPAIMSASPGERVTMTCSASSTIGFMYWYQQKPGTSPKRWIYDTSKLASGVPARFSVSGSGTSYSLTISSMEAEDAATYYCHQRSSYPTFGGGTKLEIKR | 99.7 |

From here, focus on the item given below.
// query Could you please provide reported % of cells in gate V1-R at 100 nM for Antibody V3 (antibody, human IgG1, kappa, V domains shown, Humanized from chimeric antibody M1; also called humanized antibody V3) VH: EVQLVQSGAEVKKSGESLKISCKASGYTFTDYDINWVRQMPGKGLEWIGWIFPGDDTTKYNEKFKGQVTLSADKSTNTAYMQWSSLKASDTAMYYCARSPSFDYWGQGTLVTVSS VL: QIVLTQSPGTLSLSPGERATLSCSASSTIGFMYWYQQKPGQAPRRWIYDTSKLASGVPDRFSGSGSGTDYTLTISRLEPEDFAVYYCHQRSSYPTFGQGTKVEIKR ? Thanks!
// result 99.6
